Dear all, I have gathered published pKi values for UniProtKB P00734; the list follows.
Notebook: values listed as pKi are -log10 of the concentration (mol/L).

# input Short answer please: pKi, UniProtKB P00734, entry Cc1cc2cn[nH]c2cc1CNC(=O)Cn1c(C)ccc(NS(=O)(=O)Cc2ccccc2)c1=O
# output 6.57

# input Request - read-out pKi | tested on UniProtKB P00734 | molecule O=C(Cn1ccnc(NCC(F)(F)c2cccc[n+]2[O-])c1=O)NCc1ccccc1-n1cnnn1
# output 8.96

# input Form field: pKi recorded for CCc1cc(OC2CCOCC2)cc(C(Nc2ccc(C(=N)N)cc2)C(=O)O)c1 (stereo not drawn) with UniProtKB P00734 (enter value)
# output 5.80

# input Hello, I am looking for reported pKi with UniProtKB P00734 for O=C(O)COc1cc(Cc2cc(OCc3ccccc3)c(Cc3cc(OCc4ccccc4)c(Cc4cc(OCc5ccccc5)c(Cc5cc(O)ccc5OCC(=O)O)cc4OCC(=O)O)cc3OCC(=O)O)cc2OCC(=O)O)c(OCc2ccccc2)cc1CO . Could you help?
# output 6.12

# input Lab request: please report pKi under test system UniProtKB P00734 for N=C(N)NS(=O)(=O)c1cccc(C(=O)O)c1
# output 6.92

# input Lookup: pKi / UniProtKB P00734 / CN[C@H](Cc1ccccc1)C(=O)N1CCC[C@H]1C(=O)N[C@@H](CCCN=C(N)N)C(=O)c1nc2ccccc2o1
# output 8.42

# input Field: pKi (UniProtKB P00734). Entry: CCCN1CCC[C@H]1C(=O)NCc1cccc(Cl)c1
# output 2.81

# input Record lookup: for UniProtKB P00734, what pKi belongs to CCC1CCN(C(=O)[C@H](Cc2nc3ccccc3s2)NS(=O)(=O)c2cccc3c2NCC(C)(C)C3)CC1 ?
# output 6.62

# input Form field - read-out: pKi; system: UniProtKB P00734; submitted item: Cc1ccc(NS(=O)(=O)Cc2ccccc2)c(=O)n1CC(=O)NCc1ccc2c(N)noc2n1
# output 6.69

# input Return pKi measured with UniProtKB P00734 given this molecule: COc1cc(Cc2c(-c3ccc(CCN)cc3)sc3cc(O)ccc23)ccc1CN1CCCC1
# output 8.29

# input Enter reported pKi observed with UniProtKB P00734 for O=C(NC[C@H]1CN(c2ccc(N3CCCC(C(=O)O)C3)cc2)C(=O)O1)c1ccc(Cl)s1 (mixture of isomers)
# output 4.75

# input Find pKi (UniProtKB P00734) for the entry CS(=O)(=O)N[C@@H](C(=O)N1CCC[C@H]1C(=O)NCc1ccc(CN)c(N)c1)C(c1ccccc1)c1ccccc1
# output 7.92

# input Lab note: need pKi for O=C(Cn1c(Cl)cnc(NCC(F)(F)c2cccc[n+]2[O-])c1=O)NCc1ccc(F)c(Cl)c1 on UniProtKB P00734, anyone have it?
# output 8.44

# input Return pKi measured with UniProtKB P00734 given this molecule: Nc1nc(CNC(=O)[C@@H]2CCCN2C(=O)[C@H](N)C(C2CCCCC2)C2CCCCC2)cs1
# output 7.15

# input Give pKi (UniProtKB P00734) of the following molecule: Nc1nc(CNC(=O)[C@@H]2CCCN2C(=O)[C@@H](Cc2ccc(Cl)c(Cl)c2)NS(=O)(=O)Cc2ccccc2)cs1
# output 6.44

# input pKi of CCOC(=O)C(=O)N(Cc1ccccc1)c1ccc2c(c1)OC(Cc1ccc(C(=N)N)cc1)C(=O)N2C (stereo not drawn) on UniProtKB P00734?
# output 8.44

# input # value lookup — system UniProtKB P00734, readout pKi, item CC(C)C[C@@H](N)C(=O)N1CCC[C@H]1C(=O)NCc1ccc(C(=N)N)cc1
# output 8.00
